assay: refractive index (Na D-line) (dimensionless); conditions: 293.15 K; 101.33 kPa; Liquid; Standard Abbe refractometry
measuredQuantity: refractive index

COc1ccccc1O [2-methoxyphenol]; 1.5441
CC(=O)CO [acetol]; 1.4262
O=Cc1ccco1 [2-furaldehyde]; 1.5264
CCC=O [propanal]; 1.3644
Cc1ccccc1 [toluene]; 1.4969
CO [methanol]; 1.3293
CC(=O)OC(C)C [1-methylethyl ethanoate]; 1.3779
